study target: C. elegans ser-7a / SER-7 (Caenorhabditis elegans, UniProt Q22895)
Construct: ser-7a cDNA expressed pan-neuronally (Psnb-1) in C. elegans ser-7(tm1325) null mutant
Sequence (Q22895 1-435): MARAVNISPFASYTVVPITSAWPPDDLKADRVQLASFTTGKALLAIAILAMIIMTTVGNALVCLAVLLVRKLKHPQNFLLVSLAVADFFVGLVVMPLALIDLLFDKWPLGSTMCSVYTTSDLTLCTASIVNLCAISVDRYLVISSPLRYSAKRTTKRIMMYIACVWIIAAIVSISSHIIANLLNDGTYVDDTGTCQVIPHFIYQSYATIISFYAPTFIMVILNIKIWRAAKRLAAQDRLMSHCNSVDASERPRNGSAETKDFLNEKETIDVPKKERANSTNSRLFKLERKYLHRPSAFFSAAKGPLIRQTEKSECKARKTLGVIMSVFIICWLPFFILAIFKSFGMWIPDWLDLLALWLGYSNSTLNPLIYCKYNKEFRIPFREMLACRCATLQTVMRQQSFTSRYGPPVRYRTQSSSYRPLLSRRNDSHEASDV
test name: pharyngeal pumping of cut-head preparation, C. elegans ser-7 null expressing ser-7a
experimental context: agonist; Dent's saline pH 7.4, 0.1% BSA; response dependent on SER-7
readout: EC50

NCCc1c[nH]c2ccc(O)cc12; 782 nM
